# measurementNotes: Reversal of P-gp mediated multidrug resistance in human HepG2/DOX cells assessed as doxorubicin IC50 at 5 uM measured within 48 hrs by MTT assay (Rvb = 69.3 +/- 3.9 uM)
endpointLabel: pIC50
In textbook form, pIC50 equals minus log to base ten of the concentration in mol/L.

Q) Check the records and state pIC50 for `CCCN(C(=O)CCCCCCC(=O)N(CCC)[C@H]1CC2=CC(=O)O[C@]23C[C@H]1N1CCCC[C@H]13)[C@H]1CC2=CC(=O)O[C@]23C[C@H]1N1CCCC[C@H]13`
A) 5.85

* * *

# measurementNotes: Reversal of P-gp mediated multidrug resistance in human MCF7/ADM cells assessed as doxorubicin IC50 at 5 uM measured within 48 hrs by MTT assay (Rvb = 151.7 +/- 5 uM)
endpointLabel: pIC50
In textbook form, pIC50 equals minus log to base ten of the concentration in mol/L.

Q) Check the records and state pIC50 for `CCCN(C(=O)CCCCCCC(=O)N(CCC)[C@H]1CC2=CC(=O)O[C@]23C[C@H]1N1CCCC[C@H]13)[C@H]1CC2=CC(=O)O[C@]23C[C@H]1N1CCCC[C@H]13`
A) 4.84

* * *

# measurementNotes: Reversal of P-gp mediated multidrug resistance in human MCF7/ADM cells assessed as doxorubicin IC50 at 10 uM measured within 48 hrs by MTT assay (Rvb = 151.7 +/- 5 uM)
endpointLabel: IC50 (nM)
The answer is to be given in nM; state only the numeric part.

Q) Check the records and state IC50 for `CCCN(C(=O)CCCCCCC(=O)N(CCC)[C@H]1CC2=CC(=O)O[C@]23C[C@H]1N1CCCC[C@H]13)[C@H]1CC2=CC(=O)O[C@]23C[C@H]1N1CCCC[C@H]13`
A) 1200

* * *

# measurementNotes: Reversal of P-gp mediated multidrug resistance in human HepG2/DOX cells assessed as doxorubicin IC50 at 10 uM measured within 48 hrs by MTT assay (Rvb = 69.3 +/- 3.9 uM)
endpointLabel: pIC50
In textbook form, pIC50 equals minus log to base ten of the concentration in mol/L.

Q) Check the records and state pIC50 for `CCCN(C(=O)CCCCCCC(=O)N(CCC)[C@H]1CC2=CC(=O)O[C@]23C[C@H]1N1CCCC[C@H]13)[C@H]1CC2=CC(=O)O[C@]23C[C@H]1N1CCCC[C@H]13`
A) 6.52
